- measured-on: T1, HLA-B*44:02 (human)
- T1 construct: Peptide-receptive MHC class I monomer made by UV cleavage of a UV-sensitive ligand
- assay-text: UV ligand exchange ELISA; exchange yield grade
Items are presented alongside their recorded peptide exchange yield.

- binder: "NEVLASKY"
  result: "10 to 20%"
- binder: "TEIFKEHNF"
  result: "20 to 50%"
- binder: "NEDKGTKAW"
  result: "20 to 50%"

Would you kindly look at the next entry?
The binder listed as NEIKVYITF shows peptide exchange yield equal to 50 to 75%
